Source: ChEMBL document CHEMBL1132027

biological target: Fatty-acid amide hydrolase 1 (Rattus norvegicus, UniProt P97612); test: Inhibitory concentration against Fatty-acid amide hydrolase (FAAH) in rat liver
Sequence (P97612 whole entry): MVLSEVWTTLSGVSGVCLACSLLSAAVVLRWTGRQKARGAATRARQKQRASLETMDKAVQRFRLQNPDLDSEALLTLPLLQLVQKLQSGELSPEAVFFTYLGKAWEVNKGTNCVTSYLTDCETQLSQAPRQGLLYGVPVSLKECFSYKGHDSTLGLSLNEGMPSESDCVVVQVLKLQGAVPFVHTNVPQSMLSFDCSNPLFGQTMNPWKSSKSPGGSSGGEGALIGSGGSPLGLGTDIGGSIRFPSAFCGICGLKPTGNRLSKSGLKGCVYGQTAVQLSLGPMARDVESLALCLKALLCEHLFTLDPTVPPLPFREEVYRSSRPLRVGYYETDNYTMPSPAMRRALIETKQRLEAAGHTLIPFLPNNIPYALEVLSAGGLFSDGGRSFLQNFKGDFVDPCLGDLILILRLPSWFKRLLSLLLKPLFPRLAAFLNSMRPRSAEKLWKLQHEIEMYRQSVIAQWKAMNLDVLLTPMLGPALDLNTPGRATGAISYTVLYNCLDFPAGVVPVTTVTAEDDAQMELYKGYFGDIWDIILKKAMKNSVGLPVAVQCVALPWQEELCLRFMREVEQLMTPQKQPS
The following compounds are listed with their measured pIC50 values.
Entry type: numeric. Quantity: pIC50, the -log10 of concentration in molar units.

Name the recorded pIC50 for CCCCCCC(=O)C(F)(F)F .
4.28

Field request: pIC50 | item: O=C(CCCCCc1ccccc1)C(F)(F)F
6.08

Which value of pIC50 has been reported for O=C(CCCCCCCc1ccccc1)C(F)(F)F in the records?
6.92

GET /values?readout=pIC50&item= O=C(CCCCCCc1ccccc1)C(F)(F)F
6.35

Need pIC50, item CCCCCCCCc1ccccc1CCCCCCCC(=O)C(F)(F)F
5.60

Reported pIC50, compound CCCCCCCC(=O)C(F)(F)F : ____
5.18

Return reported pIC50; argument: CCCCc1cc2ccccc2cc1CCCC(=O)C(F)(F)F
4.52
